Recorded measurements of %Inh, one per entry
Tested on: PRKCD
measurement-context: concentration: 1 μM, replicates: in singlicate; n = 1;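 further: KINOMEscan kinase panel screen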
Field: numeric (%). Do not append units.

Some solved entries appear below for comparison.
O=C(Nc1n[nH]c2cc(-c3ccoc3)ccc12)C1CC1 :: 4
Cc1cccc(NC(=O)Nc2ccc(Oc3ncnc4ccn(C)c34)cc2)c1 :: 0
O=C(Nc1cccc(-c2nn3ccccc3c2-c2ccnc(Nc3cccc(F)c3)n2)c1)c1c(F)ccc(F)c1Cl :: 8

[Q] Reported %Inh, compound FC(F)(F)c1ccc(/C=C/c2cncnc2Nc2ccc3[nH]c(Cc4ccccc4)nc3c2)cc1 : ____
[A] 25

[Q] Reported %Inh, compound Cl.Cl.NCC(NCc1ccc(-c2ccnc3[nH]ccc23)s1)c1ccccc1 (centres unmarked) : ____
[A] 91.1

[Q] Reported %Inh, compound NCCCC(NC(=O)c1cc(Br)c(-c2ccnc3[nH]ccc23)s1)c1ccccc1.O=C(O)C(F)(F)F.O=C(O)C(F)(F)F (centres unmarked) : ____
[A] 95.6

[Q] Reported %Inh, compound Cc1ccc(C(=O)N2CC[C@@H](O)C2)cc1-n1c(C)cc(OCc2ccc(F)cc2F)c(Br)c1=O : ____
[A] 0

[Q] Reported %Inh, compound CCCCc1nn2ncccc2c1-c1ccnc(Nc2ccc(N3CCN(C)CC3)cc2)n1 : ____
[A] 0

---

Tested on: YSK4
Construct: gene MAP3K19
measurement-context: concentration: 1 μM, replicates: in singlicate; n = 1
# binning rule on %Inh: zone 1 (below 20%), zone 2 (20% to below 90%), zone 3 (90% or more)

Example results:
CN(C)Cc1ccc(-c2ccc3c(Nc4ccc(Oc5ccccn5)cc4)ccnc3c2)o1 :: zone 2
Nc1ncnc2c1nc(-c1ccccc1)n2-c1ccccc1 :: zone 2
Cl.Cl.NCC(NCc1ccc(-c2ccnc3[nH]ccc23)s1)c1ccccc1 (stereo not drawn) :: zone 3
O=C(Nc1cccc(-c2nn3ncccc3c2-c2ccnc(Nc3ccccc3)n2)c1)c1c(F)cccc1F :: zone 1
Cl.Cl.NCC(NC(=O)c1cc(-c2ccccc2)c(-c2ccnc3[nH]ccc23)s1)c1ccccc1 (stereo not drawn) :: zone 2

[Q] Returns: class label. Input: CCn1c(-c2nonc2N)nc2c(C#CC(C)(C)O)ncc(OCCCCN)c21.O=C(O)C(F)(F)F.O=C(O)C(F)(F)F
[A] zone 3

[Q] Returns: class label. Input: Cc1ccc(C)c(NC(=O)NC2CCN(c3ccnc(Nc4ccc(F)cc4)n3)C2)c1 (stereo not drawn)
[A] zone 2

---

Test system: FES
measurement-context: concentration: 1 μM, replicates: in singlicate; n = 1
Recorded measurements of %Inh, one per entry
Field: numeric (%). Do not append units.

COCCOCCOc1cc2ncc3c4ccc(C#N)cc4[nH]c3c2cc1OC :: 17
Cc1occc1-c1ncc(OC[C@@H](N)Cc2c[nH]c3ccccc23)cc1-c1ccc2[nH]nc(C)c2c1.O=C(O)C(F)(F)F :: 47

# ---- query molecule ----
[Q] Reported %Inh, molecule C[C@@H](Oc1cc(-n2cnc3cc(-c4ccnc(NCCS(C)(=O)=O)c4)ccc32)sc1C(N)=O)c1ccccc1Cl : ____
[A] 0

---

System: p38-gamma
Construct: gene MAPK12
measurement-context: concentration: 1 μM, replicates: in singlicate; n = 1
Recorded measurements of %Inh, one per entry
Field: numeric (%). Do not append units.

Cc1ccc(F)c(C(=O)Nc2cccc(-c3nn4ccccc4c3-c3ccnc(Nc4cccc(F)c4)n3)c2)c1F :: 12
CN1CCN(CCCNc2nccc(-c3c(-c4ccc(F)cc4)nn4cc(C(F)(F)F)ccc34)n2)CC1 :: 18

[Q] Reported %Inh, molecule O=C(Nc1cccc(-c2nn3ccccc3c2-c2ccnc(Nc3cccc(C(F)(F)F)c3)n2)c1)c1c(F)cccc1F : ____
[A] 0

---

System: ARK5
Construct: gene NUAK1
measurement-context: concentration: 1 μM, replicates: in singlicate; n = 1
Tag: class 1 if measured %Inh is not below 20%, class 0 if it is.

Example results:
Cl.c1ccc(-c2ccc3c(Nc4ccc5[nH]ncc5c4)ccnc3c2)nc1 [GW440137] :: class 0
Nc1ncc(-c2ccc3nccc(-c4ccncc4)c3c2)cc1S(=O)(=O)N1CCOCC1 [GSK1627798] :: class 0
NCCCC(NC(=O)c1cc(Br)c(-c2ccnc3[nH]ccc23)s1)c1ccccc1.O=C(O)C(F)(F)F.O=C(O)C(F)(F)F (centres unmarked) [GSK1287544] :: class 1
CN(C)Cc1ccc(-c2ccc3c(Nc4ccc(Oc5ccccn5)cc4)ccnc3c2)o1 [GW567148] :: class 0
C[C@@H]1CC[C@@H](C(=O)Nc2ccccc2)CN1c1cc(-c2ccc3c(N)n[nH]c3c2)nc(N)n1 [GSK2286062] :: class 0
O=C(NC1CCN(c2ccnc(Nc3ccc(F)cc3)n2)C1)c1cc2ccccc2s1 (centres unmarked) [GSK1379716] :: class 1
Cn1cc(-c2ccc3c(c2)CCN3C(=O)Cc2cccc(F)c2)c2c(N)ncnc21 [GSK2603358] :: class 0

[Q] Determine whether measured %Inh meets or exceeds 20% for O=C(Nc1n[nH]c2cc(-c3ccoc3)ccc12)C1CC1 [SB-738481]
[A] class 0

---

Tested on: BMPR1B
measurement-context: concentration: 1 μM, replicates: in singlicate; n = 1
Recorded measurements of %Inh, one per entry
A complete answer gives the number followed by the unit.

Some solved entries appear below for comparison.
Nc1n[nH]c2cnc(-c3ccccc3)cc12 :: 53%
O=C(Nc1n[nH]c2nc(-c3ccc(O)cc3)ccc12)C1CC1 :: 34%
Cc1ccc(C(=O)N2CC[C@@H](O)C2)cc1-n1c(C)cc(OCc2ccc(F)cc2F)c(Br)c1=O :: 54%
CN(c1ccc(NC(=O)Nc2cc(C(F)(F)F)ccc2F)cc1)c1ccnc(Nc2ccc(S(N)(=O)=O)cc2)n1 :: 20%
COc1cccc(C(=O)Nc2cccc(Oc3ccc4nc(NC(=O)C5CC5)cn4n3)c2)c1 :: 13%

[Q] Fill in the recorded %Inh for this molecule, with BMPR1B as test system: CCS(=O)(=O)c1ccc(OC)c(Nc2nccc(-c3c(-c4cccc(NC(=O)c5c(F)cccc5F)c4)nn4ncccc34)n2)c1
[A] 0%

---

Test system: FAK
Construct: gene PTK2
measurement-context: concentration: 1 μM, replicates: in singlicate; n = 1
readout-type: %Inh (%)
Field: numeric (%). Do not append units.

Some solved entries appear below for comparison.
COc1cc(Nc2nccc(-c3c(-c4cccc(NC(=O)c5c(F)cccc5F)c4)nn4ncccc34)n2)cc(OC)c1OC :: 38
C[C@@H]1CC[C@@H](C(=O)Nc2ccccc2)CN1c1cc(-c2ccc3c(N)n[nH]c3c2)nc(N)n1 :: 0

[Q] Reported %Inh, molecule CN1CCN(Cc2cccc(-c3ccc4c(Nc5ccc(Oc6ccccc6)cc5)ccnc4c3)c2)CC1 : ____
[A] 0

---

Test system: ULK3
measurement-context: concentration: 1 μM, replicates: in singlicate; n = 1
readout-type: %Inh (%)
Field: numeric (%). Do not append units.

Some solved entries appear below for comparison.
Cl.Cl.NCC(NC(=O)c1cc(-c2ccccc2)c(-c2ccnc3[nH]ccc23)s1)c1ccccc1 (centres unmarked) :: 9
CN(C)S(=O)(=O)c1cc(-c2ccc3nccc(-c4cccc(S(N)(=O)=O)c4)c3c2)cnc1N :: 6
COCCOCCOc1cc2ncc3c4ccc(C#N)cc4[nH]c3c2cc1OC :: 65
Cl.c1ccc(-c2ccc3c(Nc4ccc5[nH]ccc5c4)ccnc3c2)nc1 :: 6

# ---- query compound ----
[Q] Fill in the recorded %Inh for this compound, with ULK3 as test system: O=C(Nc1cccc(-c2nn3ccccc3c2-c2ccnc(Nc3cccc(C(F)(F)F)c3)n2)c1)c1c(F)cccc1F
[A] 5

---

Recorded measurements of %Inh, one per entry
Tested on: MARK4
measurement-context: concentration: 1 μM, replicates: in singlicate; n = 1
A complete answer gives the number followed by the unit.

Some solved entries appear below for comparison.
COc1cc(Nc2nccc(N3CCC(NC(=O)Nc4cccc(C(C)=O)c4)C3)n2)cc(OC)c1OC (centres unmarked) :: 6%
Cc1ccc(C(=O)Nc2ccc(Nc3ccnc4cc(-c5nccs5)ccc34)cc2O)cc1.Cl :: 0%

[Q] Reported %Inh, compound CNC(=O)c1ccccc1Nc1nc(Nc2ccc(N3CCOCC3)cc2)ncc1Cl.Cl : ____
[A] 96.8%

[Q] Reported %Inh, compound Cl.c1ccc(-c2ccc3c(Nc4ccc5[nH]ccc5c4)ccnc3c2)nc1 : ____
[A] 0%

[Q] Reported %Inh, compound Cl.Cl.NCC(NC(=O)c1cc(-c2ccccc2)c(-c2ccnc3[nH]ccc23)s1)c1ccccc1 (centres unmarked) : ____
[A] 3%

[Q] Reported %Inh, compound COc1cc(Nc2nccc(N3CCC(NC(=O)c4cc5ccccc5s4)C3)n2)cc(OC)c1OC (centres unmarked) : ____
[A] 22%

[Q] Reported %Inh, compound Cl.Cl.NCC(NCc1ccc(-c2ccnc3[nH]ccc23)s1)c1ccccc1 (centres unmarked) : ____
[A] 0%

[Q] Reported %Inh, compound COc1cc(Nc2nccc(-c3c(-c4cccc(NC(=O)c5c(F)cccc5F)c4)nn4ncccc34)n2)cc(OC)c1OC : ____
[A] 56%

[Q] Reported %Inh, compound CN(C)S(=O)(=O)c1cc(-c2ccc3nccc(-c4cccc(S(N)(=O)=O)c4)c3c2)cnc1N : ____
[A] 0%

[Q] Reported %Inh, compound Cc1cccc(Nc2nc(N[C@H]3CCNC3)ncc2C(N)=O)c1.Cl : ____
[A] 4%

[Q] Reported %Inh, compound COC(=O)Nc1nc2ccc(Oc3ccc(NC(=O)Nc4cc(C(F)(F)F)ccc4F)cc3)cc2n1C.Cl : ____
[A] 2%
